test_target: 5-HT2C receptor (Homo sapiens)
Sequence (P28335 33-458): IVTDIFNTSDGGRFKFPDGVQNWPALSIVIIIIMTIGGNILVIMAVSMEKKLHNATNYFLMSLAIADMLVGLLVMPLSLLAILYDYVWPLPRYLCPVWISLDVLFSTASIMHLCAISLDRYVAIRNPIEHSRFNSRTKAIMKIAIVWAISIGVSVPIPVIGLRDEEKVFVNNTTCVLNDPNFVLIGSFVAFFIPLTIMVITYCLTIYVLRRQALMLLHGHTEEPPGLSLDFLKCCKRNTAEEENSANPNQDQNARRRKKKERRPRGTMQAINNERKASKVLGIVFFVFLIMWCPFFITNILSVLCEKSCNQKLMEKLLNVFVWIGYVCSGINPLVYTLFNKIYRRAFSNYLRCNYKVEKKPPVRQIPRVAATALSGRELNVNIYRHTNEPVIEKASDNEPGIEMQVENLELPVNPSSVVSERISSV
Sequence (P32121 whole entry partner): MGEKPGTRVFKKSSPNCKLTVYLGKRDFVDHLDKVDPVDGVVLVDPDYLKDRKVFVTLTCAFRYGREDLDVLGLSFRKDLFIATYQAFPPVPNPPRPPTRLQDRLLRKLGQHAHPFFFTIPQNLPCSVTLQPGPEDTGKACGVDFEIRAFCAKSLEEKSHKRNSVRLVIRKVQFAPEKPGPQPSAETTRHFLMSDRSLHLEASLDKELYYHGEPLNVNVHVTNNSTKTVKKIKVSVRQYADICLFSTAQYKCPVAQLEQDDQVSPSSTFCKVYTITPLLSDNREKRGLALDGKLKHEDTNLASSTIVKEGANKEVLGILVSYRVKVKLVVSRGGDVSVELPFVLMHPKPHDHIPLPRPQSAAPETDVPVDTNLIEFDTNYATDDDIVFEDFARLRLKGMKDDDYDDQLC
assay_explanation: Functional activity: beta-arrestin2 recruitment to the 5-HT2C receptor in U2OS_HTR2C-β-Arrestin cells (DiscoverX)
conditions: 1.5 h incubation, chemiluminescent β-galactosidase complementation readout, read-out: Potency (EC50) in functional assay
pEC50: −log10 of the molar value. Structures can show the parent of a compound that is named as a salt.
pEC50: recorded values

Consider the reported pEC50 for these compounds:
compound	result
CC1CN2CCNCc3cccc(c32)C1(C)C (single isomer, unassigned) [Example 28]	6.70 to 7.70
Fc1ccc2c3c1C1(CCC1)CCN3CCNC2 [Example 26, hydrochloride]	> 7.70
CC1(C)CCN2CCNCc3cc(Cl)cc1c32 [Example 19, bis(2,2,2-trifluoroacetate)]	6.70 to 7.70
c1cc2c3c(c1)N1CCC[C@@H]1CN3CCNC2 [Example 16, bis(2,2,2-trifluoroacetate)]	6.00 to 6.70

In the following, a different compound is considered.
Lab note: need pEC50 with 5-HT2C receptor (Homo sapiens) for entry CC1CN2CCNCc3cccc(c32)C1(C)C (single isomer, unassigned) [Example 27] , please look it up. 6.00 to 6.70
